Taken from ChEMBL document CHEMBL3259695.

Please respond with reported Ratio Ki for every item in the list.
- Species on record: Rattus norvegicus
- testDescription: Selectivity ratio of Ki for dopamine D2-like receptor in Sprague-Dawley rat caudate putamen to Ki for dopamine D3 receptor in Sprague-Dawley rat ventral striatum
- Type: tissue-based
Answers are plain numbers.

Some solved cases for reference:
- compound: "CCCN[C@@H]1C[C@H]1c1ccccc1"
  Ratio Ki: 81
- compound: "CCCN(CC[C@]1(O)C[C@@H](NC(=O)c2ccc3ccccc3c2)C1)[C@H]1C[C@@H]1c1ccccc1Cl (racemic)"
  Ratio Ki: 26
- compound: "CCCN[C@H]1C[C@@H]1c1ccccc1"
  Ratio Ki: 82

Record Ratio Ki for all entries; do not skip any.
1. CCCN(CC[C@]1(O)C[C@@H](NC(=O)c2ccc3ccccc3c2)C1)[C@H]1C[C@@H]1c1ccccc1
2. CCCN(CC[C@]1(O)C[C@@H](NC(=O)c2ccc3ccccc3c2)C1)[C@@H]1C[C@H]1c1ccccc1

*A*
1. 20
2. 30

---

- targetDesc: D(2) dopamine receptor (Rattus norvegicus, UniProt P61169)
- Sequence (P61169 whole entry): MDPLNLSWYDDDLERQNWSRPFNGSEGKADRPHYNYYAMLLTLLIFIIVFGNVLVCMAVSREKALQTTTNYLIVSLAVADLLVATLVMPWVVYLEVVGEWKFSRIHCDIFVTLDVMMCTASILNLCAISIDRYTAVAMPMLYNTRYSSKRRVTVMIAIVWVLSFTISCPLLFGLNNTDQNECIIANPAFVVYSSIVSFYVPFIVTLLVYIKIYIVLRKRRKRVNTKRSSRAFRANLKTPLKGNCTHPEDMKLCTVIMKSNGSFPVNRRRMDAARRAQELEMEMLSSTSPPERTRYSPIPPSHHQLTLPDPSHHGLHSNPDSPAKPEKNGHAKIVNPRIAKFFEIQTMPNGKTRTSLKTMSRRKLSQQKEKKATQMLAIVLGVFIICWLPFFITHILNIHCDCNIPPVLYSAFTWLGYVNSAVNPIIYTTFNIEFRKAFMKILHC
- testDescription: Displacement of [3H]Spiperone from dopamine D2-like receptor in Sprague-Dawley rat caudate putamen after 90 mins
Ki under 60 µM gets Satisfied, anything at or over 60 µM gets Not satisfied.

Illustrative cases are given below, each with its answer.
- compound: "CCCN[C@H]1C[C@@H]1c1ccccc1"
  label: "Not satisfied"
- compound: "CCCN[C@@H]1C[C@H]1c1ccccc1"
  label: "Not satisfied"
- compound: "CCCN(CC[C@]1(O)C[C@@H](NC(=O)c2ccc3ccccc3c2)C1)[C@@H]1C[C@H]1c1ccc(Cl)cc1"
  label: "Not satisfied"
- compound: "CCCN(CC[C@]1(O)C[C@@H](NC(=O)c2ccc3ccccc3c2)C1)[C@@H]1C[C@H]1c1ccccc1"
  label: "Satisfied"
- compound: "CCCN(CC[C@]1(O)C[C@@H](NC(=O)c2ccc3ccccc3c2)C1)[C@H]1C[C@@H]1c1cccc(Cl)c1 (racemic)"
  label: "Not satisfied"

*Q* API: query returns whether the compound falls strictly under 60 µM in Ki. Query: CCCN(CC[C@]1(O)C[C@@H](NC(=O)c2ccc3ccccc3c2)C1)[C@H]1C[C@@H]1c1ccccc1
*A* Satisfied

*Q* API: query returns whether the compound falls strictly under 60 µM in Ki. Query: CCCN(CC[C@]1(O)C[C@@H](NC(=O)c2ccc3ccccc3c2)C1)[C@H]1C[C@@H]1c1ccc(Cl)cc1
*A* Not satisfied

---

- testDescription: Displacement of [3H]SCH 23390 from dopamine D1-like receptor in Sprague-Dawley rat caudate putamen after 90 mins
- Assay type: tissue-based
experimentalEndpoint: pKi
Numbers only, as −log10 of the molar value.

Some solved cases for reference:
- compound: "CCCN(CC[C@]1(O)C[C@@H](NC(=O)c2ccc3ccccc3c2)C1)[C@@H]1C[C@H]1c1ccc(Cl)cc1"
  pKi: 4.59
- compound: "CCCN(CC[C@]1(O)C[C@@H](NC(=O)c2ccc3ccccc3c2)C1)[C@H]1C[C@@H]1c1ccccc1Cl (racemic)"
  pKi: 6.13
- compound: "CCCN[C@H]1C[C@@H]1c1ccccc1"
  pKi: 3.91
- compound: "CCCN[C@@H]1C[C@H]1c1ccccc1"
  pKi: 4.04

Record pKi for all entries; do not skip any.
1. CCCN(CC[C@]1(O)C[C@@H](NC(=O)c2ccc3ccccc3c2)C1)[C@H]1C[C@@H]1c1ccc(Cl)cc1
2. Cc1ncoc1-c1nnc(SCCCN2CC3CC3(c3ccc(C(F)(F)F)cc3F)C2)n1C (stereo unspecified)

*A*
4.69
4.41
